Data origin, for the record: patent EP2605769B1

protocol_notes: Pharmacokinetic analysis in plasma and eye fluids after oral administration
Type: in vivo, mice
test_context: C57BL/6J, mouse; Vitreous Humor, single oral administration at 400 mg/kg, male mice
attribute_measured: Cmax (ng/mL)

- COC1=C(OC)C(=O)C(CCCCCCCCCCO)=C(C)C1=O [Compound IA, Idebenone]: 37.9

---

protocol_notes: Cytotoxicity assay (WST-1)
Format: cell-based, human
test_context: human, hepg2 cells, Hep-G2 cells, 24 hours exposure, read-out: TC50
attribute_measured: CC50 at 24 h

- COC1=C(OC)C(=O)C(CCCCCCCCCC(C)(C)O)=C(C)C1=O: 71.9 µM
